studyTarget: T1, APBA2_2, Q99767
T1 sequence (Q99767 654-744, limits assumed, looked up): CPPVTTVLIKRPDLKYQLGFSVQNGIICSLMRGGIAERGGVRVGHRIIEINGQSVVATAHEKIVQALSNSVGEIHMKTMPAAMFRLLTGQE
testName: holdup assay
Parameters: key: below the threshold = too weak to quantify, mostly under pKd 3.1 to 4
testContext: plain residues with an end cap or a label only (N-terminal biotin on a linker: ado-ado)
readoutLabel: pKd

binder	pKd
DDENIRTSDV [PLEKHA2, Q9HB19]	below the threshold
SKSNFGSEPL [KIF17, Q9P2E2]	below the threshold
LGRSTPQSEV [DGKH, Q86XP1]	below the threshold
IKAIVDLTGL [TRAF2, Q12933]	below the threshold
QGLAERISVL [PRKD2, Q9BZL6]	below the threshold
QKNRKAQEDL [CES3, Q6UWW8]	below the threshold
TLPRKRMSSI [GPRC6A, Q5T6X5]	below the threshold
YRLAQESGLV [ABCC6, O95255]	below the threshold
EKKTLIGIKL [GOT1L1, Q8NHS2]	below the threshold
YYKRPVQEWV [MMP24, Q9Y5R2]	below the threshold

Task item: Quote pKd reported for PRAEAEDSFL [PDGFRB, P09619] please.
Reply: below the threshold

Task item: Quote pKd reported for QSPANIYYKV [EFNB1, P52799] please.
Reply: below the threshold

Task item: Quote pKd reported for HLRARKSEWV [GJD4, Q96KN9] please.
Reply: below the threshold

Task item: Quote pKd reported for PLSPEQPTKL [TRIM50, Q86XT4] please.
Reply: below the threshold

Task item: Quote pKd reported for AKPSRISTVV [IQSEC2, Q5JU85] please.
Reply: below the threshold

Task item: Quote pKd reported for VDSTVKVWTC [TRAF7, Q6Q0C0] please.
Reply: below the threshold

Task item: Quote pKd reported for SNAGNTATKA [NOSTRIN, Q8IVI9] please.
Reply: below the threshold

Task item: Quote pKd reported for SARSRLSSNL [HCN2, Q9UL51] please.
Reply: below the threshold

Task item: Quote pKd reported for CLREWCDAFL [BANF1, O75531] please.
Reply: below the threshold

Task item: Quote pKd reported for QHKTQLQTLI [BPIFA2, Q96DR5] please.
Reply: below the threshold

This collection of values is drawn from paper PMC9482650.
